molecular target: HIV-1 Env of isolate MGRM-F1-014 (subtype F) (HIV-1); experiment: cell-based or functional assay
# IC50 (neutralization) per record follows
measurement-name: IC50 (neutralization)

- binder: "PGT-128 (antibody, V domains shown) VH: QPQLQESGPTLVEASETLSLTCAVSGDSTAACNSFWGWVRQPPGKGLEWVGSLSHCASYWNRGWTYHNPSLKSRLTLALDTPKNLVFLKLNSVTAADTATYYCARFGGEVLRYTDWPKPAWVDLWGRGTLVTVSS VL: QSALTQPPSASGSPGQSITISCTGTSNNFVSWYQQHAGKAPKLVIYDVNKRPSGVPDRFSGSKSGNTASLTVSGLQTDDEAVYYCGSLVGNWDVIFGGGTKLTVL"
  value-measured: "0.277 mg/L"
- binder: "PGT-130 (antibody, V domains shown) VH: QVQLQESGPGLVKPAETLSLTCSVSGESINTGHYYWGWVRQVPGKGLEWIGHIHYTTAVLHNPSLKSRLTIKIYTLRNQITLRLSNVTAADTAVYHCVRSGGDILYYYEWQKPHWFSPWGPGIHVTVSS VL: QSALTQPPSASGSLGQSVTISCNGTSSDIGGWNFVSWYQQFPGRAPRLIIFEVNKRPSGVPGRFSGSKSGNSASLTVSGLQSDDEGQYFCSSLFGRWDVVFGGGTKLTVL"
  value-measured: "11.8 mg/L"
- binder: "PGT-123 (antibody, V domains shown) VH: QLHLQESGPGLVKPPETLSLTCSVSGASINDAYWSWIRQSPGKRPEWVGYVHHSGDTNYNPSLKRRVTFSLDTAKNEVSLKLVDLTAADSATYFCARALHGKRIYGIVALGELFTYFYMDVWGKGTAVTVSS VL: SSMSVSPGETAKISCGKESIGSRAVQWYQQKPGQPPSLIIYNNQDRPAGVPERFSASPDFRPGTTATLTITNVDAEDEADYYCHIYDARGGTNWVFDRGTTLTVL"
  value-measured: "0.111 mg/L"
- binder: "PGT-125 (antibody, V domains shown) VH: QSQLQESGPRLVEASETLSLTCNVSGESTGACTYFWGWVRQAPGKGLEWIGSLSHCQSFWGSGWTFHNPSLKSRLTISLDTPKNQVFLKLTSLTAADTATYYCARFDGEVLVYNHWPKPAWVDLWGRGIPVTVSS VL: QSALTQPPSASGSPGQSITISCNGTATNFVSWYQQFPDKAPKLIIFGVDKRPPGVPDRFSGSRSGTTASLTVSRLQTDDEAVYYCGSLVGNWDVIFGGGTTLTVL"
  value-measured: "> 50 mg/L"
- binder: "PGT-135 (antibody, V domains shown) VH: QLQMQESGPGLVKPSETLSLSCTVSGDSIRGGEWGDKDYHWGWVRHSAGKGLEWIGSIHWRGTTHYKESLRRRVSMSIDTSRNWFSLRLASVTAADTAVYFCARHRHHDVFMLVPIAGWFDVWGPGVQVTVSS VL: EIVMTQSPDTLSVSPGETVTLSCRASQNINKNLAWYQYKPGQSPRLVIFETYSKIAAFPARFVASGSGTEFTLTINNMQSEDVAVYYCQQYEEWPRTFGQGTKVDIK"
  value-measured: "> 50 mg/L"
